system: HEK293T (UBE3A T485A transfected, BAR Wnt reporter); test: Wnt reporter firefly/Renilla luciferase ratio relative to plate median (fold (linear ratio)); higher = more Wnt/beta-catenin reporter activation; conditions: concentration: 0.1 uM; 24 h
The full ranking holds about 1,100 compounds; the median of “Wnt reporter firefly/Renilla luciferase ratio relative to plate median” is about 1.1, and the highest 2% start at about 1.6. For the sample, the highest values were picked, then their nearest neighbours and some compounds at random.
Would you mind telling me the reported Wnt reporter firefly/Renilla luciferase ratio of each entry?
One number for each entry.

Please review the entries below; each comes with its answer.
compound	quantitativeResult
N#CSCSc1nc2ccccc2s1	0.88
Sc1nc2ccccc2s1	1.39
CCCCC(CC)C(=O)O (stereo not drawn)	0.925
CCCC(CCC)C(=O)O	0.995
c1ccc2[nH]c(-c3cscn3)nc2c1	1.03
O=C(NO)C1(NS(=O)(=O)c2ccc(Oc3ccc(F)cc3)cc2)CCOCC1	1.18
CCOCCO	1.04
CC(C)(c1ccc(O)cc1)c1ccc(O)cc1	1.13
CCCCC(CC)COC(=O)CC(C(=O)OCC(CC)CCCC)S(=O)(=O)[O-].[Na+] (stereo not drawn) [Docusate sodium]	0.824
CCSC(=O)N(CC(C)C)CC(C)C [Butylate]	1.31

Please state Wnt reporter firefly/Renilla luciferase ratio for every compound in the list that follows.
1. CC(C)NCC(O)c1ccc(O)c(O)c1.Cl (stereo not drawn) [Isoproterenol hydrochloride]
2. Cc1ncc([C@@H](CCCCCCc2ccc3c(n2)NCCC3)CC(=O)O)cn1
3. O=C(O)/C=C/C(=O)O.O=C1c2ccccc2C(=O)N1CCc1noc(-c2ccc(CN3CCCCCC3)s2)n1

Result:
[1.1, 1.25, 1.17]
